Recorded values, source the SangsterLogP compilation.

Hi there, I'd appreciate the recorded logP for every entry that follows.
# protocol text: from Langlois, M.; Dubost, J.; Audry, E.; Dallet, P.; Colleter, J. (1989). Simultaneous determination of physicochemical constants usable in QSAR in a series of alpha-adrenergic amines. Analusis : chimie …
Answers are plain numbers.

{"columns": ["molecule", "logP"],
 "data": [
  ["Clc1cccc(Cl)c1C1NCCc2c1[nH]c1ccccc21 (stereo unspecified)", 3.34],
  ["Clc1ccc(C2NCCc3c2[nH]c2ccccc32)cc1Cl (stereo unspecified)", 3.38],
  ["O=[N+]([O-])c1ccc(Cl)c(C2NCCc3c2[nH]c2ccccc32)c1 (stereo unspecified)", 3.33],
  ["c1ccc2c3c([nH]c2c1)C(c1ccc2c(c1)OCO2)NCC3 (stereo unspecified)", 3.69],
  ["Clc1cccc(C2NCCc3c2[nH]c2ccccc32)c1 (stereo unspecified)", 3.47]
]}

Now consider a different molecule.
Incoming: So what does the record say about logP for Fc1ccccc1C1NCCc2c1[nH]c1ccccc21 (stereo unspecified) ?
Outgoing: 3.16
